# Assay Explanation: in vitro
# Run Parameters: human, hela cells, % viability
Measurement Name: viability at 28.5 h, 10 µM (%)
Quick reminder: number only, in %, skip the unit.

Before answering, review these 8 worked examples.
response.value for Clc1ccc2c(c1)OCC[C@@H]2Oc1cncc(N2CCNCC2)n1 [CBK172313G] (field: viability at 28.5 h, 10 µM) = 86.2

response.value for CC(C)S(=O)(=O)n1ccn(-c2ccc3c(c2)OCO3)c1=O (field: viability at 28.5 h, 10 µM) = 90.9

response.value for COc1ccc(OCC(=O)Nc2ccc3oc(-c4ccc(OC)c(Br)c4)nc3c2)cc1 (field: viability at 28.5 h, 10 µM) = 99.4

response.value for c1ccc(-n2nnnc2CSc2nc3ccccc3s2)cc1 (field: viability at 28.5 h, 10 µM) = 102

response.value for COc1cccc(NC(=O)CN(c2ccccc2)S(=O)(=O)c2ccc(Cl)cc2)c1 (field: viability at 28.5 h, 10 µM) = 102

response.value for Cc1ccccc1OC(C)C(=O)Nn1cnnc1 (stereo not drawn) (field: viability at 28.5 h, 10 µM) = 96.2

response.value for c1cncc(-c2cc(NCCc3ccncc3)ncn2)c1 (field: viability at 28.5 h, 10 µM) = 114

response.value for CC(=O)NC[C@H]1CN(c2ccc(C3=CC[S+]([O-])CC3)c(F)c2)C(=O)O1 (stereo partly drawn) (field: viability at 28.5 h, 10 µM) = 92.5

# next compound below
response.value for CC(C)(C)OC(=O)N1CCN(c2cncc(OC3CSCc4ccccc43)n2)CC1 (stereo not drawn) (field: viability at 28.5 h, 10 µM) = 105

---

# Assay Explanation: in vitro
# Run Parameters: human, hela cells, % viability
# viability at 28.5 h, 10 µM listing for each entry below
Quick reminder: number only, in %, skip the unit.

Before answering, review these 2 worked examples.
response.value for O=C(O)c1ccc(C(=O)O)c2c(-c3ccc(C(=O)O)c4c(C(=O)O)ccc(C(=O)O)c34)ccc(C(=O)O)c12 (field: viability at 28.5 h, 10 µM) = 98.4

response.value for COc1ccc(CN2CCCN(c3nccc(OCc4cc(C)on4)n3)CC2)cc1 (field: viability at 28.5 h, 10 µM) = 100

Next:
response.value for COC(=O)[C@@H]1CN(C(=O)Nc2ccccc2)CCN1C(C)=O (field: viability at 28.5 h, 10 µM) = 88

response.value for Cc1cccc(C(=O)Nc2cc(NC(=O)c3cccc(C)c3)cc(C(=O)O)c2)c1 (field: viability at 28.5 h, 10 µM) = 98

response.value for NS(=O)(=O)c1ccc(CCNC(=O)/C=C/c2ccccc2Cl)cc1 (field: viability at 28.5 h, 10 µM) = 94

---

# Assay Explanation: in vitro
# Run Parameters: human, hela cells, % viability
# viability at 28.5 h, 10 µM listing for each entry below
Quick reminder: number only, in %, skip the unit.

Before answering, review these 4 worked examples.
response.value for O=C(Nc1cccnc1N1CCNCC1)c1ccccn1 [CBK029425T] (field: viability at 28.5 h, 10 µM) = 116

response.value for CCn1c(=O)n(CC(=O)N2CCCCC2C)c2cccnc21 (centres unmarked) (field: viability at 28.5 h, 10 µM) = 103

response.value for O=[N+]([O-])c1cnc(NS(=O)(=O)c2ccc(Oc3ccccc3)cc2)s1 (field: viability at 28.5 h, 10 µM) = 102

response.value for Cc1cccc(C(=O)N2CCCCC2C)c1 (centres unmarked) (field: viability at 28.5 h, 10 µM) = 118

# next compound below
response.value for c1ccc(CCN2CCN(Cc3ncc[nH]3)CC2)cc1 (field: viability at 28.5 h, 10 µM) = 120
